# target.entity: T1, alpha-s1 casein from Bos taurus
# T1 chain: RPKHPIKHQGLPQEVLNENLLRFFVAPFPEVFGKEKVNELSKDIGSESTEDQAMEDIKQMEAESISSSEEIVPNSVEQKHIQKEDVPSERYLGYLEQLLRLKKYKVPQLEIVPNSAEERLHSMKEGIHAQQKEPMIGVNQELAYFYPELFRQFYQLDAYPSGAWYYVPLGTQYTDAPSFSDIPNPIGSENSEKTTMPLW
recorded.metric: αs1 CN, 6 hours, 11° C. (Volume)
Unit Volume implied. Number only.

Ask | Fill in: αs1 CN, 6 hours, 11° C. of camel chymosin variant #160 (L295K) (protein) GKVAREPLTSYLDSQYFGKIYIGTPPQEFTVVFDTGSSDLWVPSIYCKSNVCKNHHRFDPRKSSTFRNLGKPLSIHYGTGSMEGFLGYDTVTVSNIVDPNQTVGLSTEQPGEVFTYSEFDGILGLAYPSLASEYSVPVFDNMMDRHLVARDLFSVYMDRNGQGSMLTLGAIDPSYYTGSLHWVPVTLQQYWQFTVDSVTINGVAVACVGGCQAILDTGTSVLFGPSSDILKIQMAIGATENRYGEFDVNCGNLRSMPTVVFEINGRDYPLSPSAYTSKDQGFCTSGFQGDNNSEKWILGDVFIREYYSVFDRANNRVGLAKAI is ___
Reply | 2.95e+07
